system: Mycobacterium tuberculosis; assay: Antimycobacterial activity against Mycobacterium tuberculosis H37Ra by microplate Alamar blue assay; format: functional
Calls of active or inactive are those of the source. No cut-off for these calls is given here.
property-name: MIC

Here's what some known entries look like.
>>> print(df.to_string())
                                   compound  result_value
0  C=C(C)[C@H]1COc2c(C)cc3oc4c(C[C@H](O)C(C)(C)OC)ccc(O)c4c(=O)c3c2[C@@H]1O [TAJIXANTHONE METHANOATE]      inactive
1  C=C(C)[C@H]1COc2c(C)cc3oc4c(C[C@H](O)C(C)(C)OCC)ccc(O)c4c(=O)c3c2[C@@H]1O [TAJIXANTHONE ETHANOATE]      inactive
2  C=C(C)[C@H]1COc2c(C)cc3oc4c(CC(C)(C)C=O)ccc(O)c4c(=O)c3c2[C@@H]1O      inactive
3  C=C(C(=O)CC)[C@H]1[C@@]2(C)C=C(C)C[C@]1(C)C=C(C)[C@@H]2/C(C)=C\[C@@H]1C=CC(=O)C1    12.5 µg/mL
4  C=C(C)[C@@H]1COc2c(C)cc3oc4c(C[C@@H]5OC5(C)C)ccc(O)c4c(=O)c3c2[C@H]1O      inactive

Now look at this one.
Problem: Using the record for C=C(C)[C@H]1COc2c(C)cc3oc4c([C@@H](OC)[C@@H]5OC5(C)C)ccc(O)c4c(=O)c3c2[C@@H]1OC(C)=O , state its measured MIC.
Solution: inactive
